- Method: Half life in human plasma
- Type: ADME, cell-free
Measured Property: half-life

Request: Note half-life for the compound shown: CCc1cc(/C(C)=N/OCc2ccc(C3CCCCC3)c(C(F)(F)F)c2)ccc1CN1CC(C(=O)O)C1 [SIPONIMOD]
Result: 2.35 to 9 days

###

- Test system: IEC-6
- Method: Inhibition of apoptosis in rat IEC-6 cells assessed as decrease in CPT-induced DNA fragmentation
- Type: functional, cell-based
Measured Property: EC50 (nM)
API: value field is a number in nM; no unit string.

Request: Specify EC50 for CCCCCCCCc1ccc(CC[C@@](N)(CO)CCP(=O)(O)O)cc1 , system IEC-6.
Result: 75
